- TARGET_OR_SYSTEM: human TRPV3 (Homo sapiens, UniProt Q8NET8)
- Construct: expressed in transfected cells
- Sequence (Q8NET8 whole entry): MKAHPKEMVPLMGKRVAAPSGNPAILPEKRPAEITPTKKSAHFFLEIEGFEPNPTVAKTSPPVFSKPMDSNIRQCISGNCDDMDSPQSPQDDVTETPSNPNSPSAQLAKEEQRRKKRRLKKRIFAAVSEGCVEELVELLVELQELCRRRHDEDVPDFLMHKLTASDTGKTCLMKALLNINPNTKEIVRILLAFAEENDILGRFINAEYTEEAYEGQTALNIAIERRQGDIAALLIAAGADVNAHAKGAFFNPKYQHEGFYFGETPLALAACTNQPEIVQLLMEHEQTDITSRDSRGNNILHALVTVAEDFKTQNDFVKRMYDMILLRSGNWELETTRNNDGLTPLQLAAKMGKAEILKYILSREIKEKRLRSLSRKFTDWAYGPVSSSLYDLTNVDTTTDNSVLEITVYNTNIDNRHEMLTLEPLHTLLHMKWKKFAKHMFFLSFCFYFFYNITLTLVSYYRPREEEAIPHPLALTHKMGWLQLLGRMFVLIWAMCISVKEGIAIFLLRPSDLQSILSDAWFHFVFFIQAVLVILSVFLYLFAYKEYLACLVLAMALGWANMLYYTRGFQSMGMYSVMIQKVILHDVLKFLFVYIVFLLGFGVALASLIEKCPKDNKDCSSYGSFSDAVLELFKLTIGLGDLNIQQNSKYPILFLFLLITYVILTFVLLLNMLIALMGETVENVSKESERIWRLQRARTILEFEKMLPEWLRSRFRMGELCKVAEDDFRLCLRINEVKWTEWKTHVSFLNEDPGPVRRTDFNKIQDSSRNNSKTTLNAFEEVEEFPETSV
- METHOD_NOTES: In vitro antagonism of recombinant human TRPV3 activation (FLIPR Tetra calcium assay, 2-APB as agonist)
- Format: cell-based
- PROTOCOL_CONDITIONS: HEK293 cells stably expressing human TRPV3; 2-APB 80 μM; range class; read-out: IC50 (reported range)
IC50 overview
METRIC_NAME: IC50

MOLECULE	RECORDED_VALUE
OC(c1ccccn1)C1(C2=CCCC(C(F)(F)F)C2)CCC1 (centres unmarked)	1100 to 5000 nM
OC(c1ccccn1)C1(c2cc(C(F)(F)F)ccn2)CCC1 (centres unmarked)	501 to 1000 nM
CC(c1ccc(C(F)(F)F)cc1)C1(C(O)c2ccccn2)CCC1 (centres unmarked)	1100 to 5000 nM
N[C@H]1CCC[C@H]1[C@H](O)C1(c2ccc(Cl)c(Cl)c2)CCC1	1100 to 5000 nM
OC(c1ccccn1)C1(c2ccc(F)c(F)c2)CCCO1 (centres unmarked) [Example 108]	501 to 1000 nM
OC(c1ccccn1)C1(c2nc3ccc(Cl)cc3o2)CCC1 (centres unmarked)	5100 to 20000 nM
OC(CC1(c2cccc(F)c2)CCC1)c1ccccn1 (centres unmarked)	1100 to 5000 nM
OC(c1ccccn1)C1(c2ccc(C(F)(F)F)cc2)CCCO1 (centres unmarked) [Example 88]	50 to 500 nM
OC(c1ccccn1)C1(C2CCC(F)(F)CC2)CCC1 (centres unmarked)	1100 to 5000 nM
OC(CC1(c2ccc(Cl)cc2)CCC1)c1ccccn1 (centres unmarked)	1100 to 5000 nM
OC(c1ccccn1)C1(c2ccc(C(F)(F)F)c(F)c2)CCC1 (centres unmarked)	1100 to 5000 nM
O[C@H](c1ccccn1)C1(c2ccnc(C(F)(F)F)c2)CCC1	501 to 1000 nM
N[C@@H]1CCC[C@H]1[C@@H](O)C1(c2cccc(C(F)(F)F)c2)CCC1	50 to 500 nM
CC1(O)CC(c2ccc(OC(F)(F)F)cc2)(C(O)c2ccccn2)C1 (centres unmarked) [Example 203]	5100 to 20000 nM
O[C@H](c1ccccn1)C1(c2ccc(C(F)(F)F)c(F)c2)CCC1	1100 to 5000 nM
OC(c1ccccn1)C1(c2cccc(C(F)(F)F)c2)CC(F)(F)C1 (centres unmarked)	50 to 500 nM
OC(c1ccccn1)C1(c2cccc(F)c2)CCCO1 (centres unmarked)	501 to 1000 nM
O[C@@H](c1ncccn1)C1(c2ccc(Cl)c(Cl)c2)CCC1	5100 to 20000 nM
CC(c1cccc(Cl)c1)C1(C(O)c2ccccn2)CCC1 (centres unmarked)	5100 to 20000 nM
OC1CC(c2ccc(F)c(Cl)c2)([C@H](O)c2ccccn2)C1 (some centres unmarked)	50 to 500 nM
